- system.name: T1, yeast small ubiquitin-like modifier protein (yeast, UniProt Q12306 3-98 = SUMO)
- T1 construct: GST fusion in most phage ELISAs, His-tagged or tag-cleaved elsewhere; also called ySUMO; yeast SUMO
- protocol.description: SPR; column 'Estimated Kd (nM)'
measurement.kind: Kd (nM)
Give bare numbers, in nM.

These solved cases illustrate the format of a correct answer.
INSERT INTO results (binder, unit_label, numeric_value) VALUES
  ('ySMB-5 (designed binder, variable loops only; library YSGW) VSSVPTKLEVVAATPTSLLISWDAPANSVSYYRITYGETGGNSPVQEFTVPGSSSTATISGLSPGVDYTITVYAYEWYGWGWTYSPISINYRT', 'nM', 100),
  ('ySMB-20 (designed binder, variable loops only; library YSGW) VSSVPTKLEVVAATPTSLLISWDAGYYMNYYMVDYYRITYGETGGNSPVQEFTVPGSSSTATISGLSPGVDYTITVYAYWYDEYGQYWWSESPISINYRT', 'nM', 66),
  ('ySMB-6 (designed binder, variable loops only; library YSGW) VSSVPTKLEVVAATPTSLLISWDASSSSVSYYRITYGETGGNSPVQEFTVPSYSSTATISGLSPGVDYTITVYAYWEFEYGYWSYSPISINYRT', 'nM', 166);

Let's switch to this binder now.
Exam item: Report Kd for ySMB-8 (designed binder, variable loops only; library YSGW) VSSVPTKLEVVAATPTSLLISWDAYVGYGSSVAYYRITYGETGGNSPVQEFTVPGSSSTATISGLSPGVDYTITVYAYYYEGDDLYSSMSPISINYRT please.
Marked response: 350
